- System Under Test: Human NAMPT (Homo sapiens)
- Construct: made in house; host or cells: E. coli
- Sequence (P43490 whole entry): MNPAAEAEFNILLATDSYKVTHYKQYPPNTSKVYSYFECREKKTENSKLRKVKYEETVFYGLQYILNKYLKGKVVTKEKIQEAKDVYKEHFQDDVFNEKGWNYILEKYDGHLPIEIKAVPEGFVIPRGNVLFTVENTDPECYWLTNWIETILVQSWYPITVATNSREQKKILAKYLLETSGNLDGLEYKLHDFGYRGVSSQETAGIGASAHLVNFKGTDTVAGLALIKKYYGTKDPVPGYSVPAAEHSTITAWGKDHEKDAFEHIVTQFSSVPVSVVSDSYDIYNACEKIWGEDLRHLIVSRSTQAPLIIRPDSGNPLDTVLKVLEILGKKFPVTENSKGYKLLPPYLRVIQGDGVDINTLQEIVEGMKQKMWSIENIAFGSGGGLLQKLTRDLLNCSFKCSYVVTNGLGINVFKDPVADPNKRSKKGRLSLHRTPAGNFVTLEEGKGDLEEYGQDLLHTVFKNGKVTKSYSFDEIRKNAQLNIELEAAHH
- Procedure Summary: in vitro NAMPT coupled-enzyme assay (NADH at OD340 nm)
- Type: biochemical
- Test Conditions: relative reaction rate normalized by the control reaction run prior to compound addition; vehicle 0.98
Outcome Measure: NAMPT activation
Reply: number alone, nothing else.

NAMPT activation lookup needed for COc1ccc(S(=O)(=O)CC(F)Cn2c3ccc(Br)cc3c3cc(Br)ccc32)cc1 (stereo not shown) , thanks. 1.01

Further, for COC(=O)NC(=O)Cn1c2ccc(Br)cc2c2cc(Br)ccc21 ? 0.93

###

Each entry below lists one item and its recorded Binding competition value.
- System Under Test: p70 (NAMPT) (Homo sapiens)
- Construct: endogenous in cells; host or cells: H2122 lung cancer cells
- Procedure Summary: binding competition for photo-crosslinking of P7C3-S326 to p70 in H2122 cells
- Test Conditions: 0.3 μM P7C3-S326 plus 5 μM competitor, p70 band intensity, P7C3-S326 alone compared with plus competitor, vehicle 1.0
- Procedure: Cultured cells were co-exposed to P7C3-S326 (0.3 uM) and the individual P7C3 variants (5 uM), exposed to UV light, lysed, clicked to a fluorescent dye and run on SDS gels (FIG. 11). […] H2122 cells were incubated with the P7C3-S326 (0.3 μM) in the absence or presence of P7C3 analogs for 2 hours following by UV crosslinking. […] The p70 band intensity was analyzed and quantified by Image J, and the relative intensity in each assay was normalized to that of the DMSO control.
Reply: number alone, nothing else.

CC(C)(C)OC(=O)NCC(F)Cn1c2ccc(Br)cc2c2cc(Br)ccc21 (centres unmarked) [S208] | 1.2
COc1cccc(N(CC(F)Cn2c3ccc(Br)cc3c3cc(Br)ccc32)S(=O)(=O)C(F)(F)F)c1 (centres unmarked) [S241] | 1.3
O=C(CCCCCC1SCC2NC(=O)NC21)NCCCCCOc1cccc(NCC(O)Cn2c3ccc(Br)cc3c3cc(Br)ccc32)c1 (centres unmarked) [S219] | 3.1
COc1cccc(NC[C@@H](F)Cn2c3ccc(Br)cc3c3cc(Br)ccc32)n1 [(+)-S243] | 4.2

--- query ---
Binding competition lookup needed for CNCCCN1c2ccccc2CCc2ccccc21.Cl [S87, Desipramine, reference compound] , thanks. 1.2

###

- System: hippocampal neurogenesis (Dentate Gyrus)
- Procedure Summary: in vivo neurogenesis assay (BrdU+ cells in dentate gyrus)
- Design: species or system mice
- Test Conditions: living mice; vehicle (DMSO) 7.3
Outcome Measure: Neurogenesis # BrdU+ Cells (X10E06)/mm3 Dentate Gyrus

Neurogenesis # BrdU+ Cells (X10E06)/mm3 Dentate Gyrus lookup needed for N#Cc1[nH]c2ccc(Br)cc2c1N [S222] , thanks. 15.1 (X10E06)/mm3

Further, for COc1cccc(NC(SC)C(=O)Cn2c3ccc(Br)cc3c3cc(Br)ccc32)c1 (stereo not shown) [S4] ? 11.7 (X10E06)/mm3

Further, for COc1cccc(NC[C@H](F)Cn2c3ccc(Br)cc3c3cc(Br)ccc32)n1 [(−)-S243] ? 18.1 (X10E06)/mm3

Further, for O=C(Cn1c2ccc(Br)cc2c2cc(Br)ccc21)NS(=O)(=O)c1ccccc1 [S230] ? 15.3 (X10E06)/mm3

Further, for COc1c(Br)cc(OC)c2c1c1cc(Br)ccc1n2CC(O)CNc1ccccc1 (stereo not shown) [S160] ? 13.1 (X10E06)/mm3

Further, for Cc1ccc2[nH]c3ccc(C)cc3c2c1 [S237] ? 11.8 (X10E06)/mm3

Further, for NNCCc1ccccc1 [S116, Nardi, reference compound] ? 11.0 (X10E06)/mm3

Further, for CCOC(=O)Cn1c2ccc(Br)cc2c2cc(Br)ccc21 [S164] ? 7.6 (X10E06)/mm3

Further, for N#Cc1ccc(N(CC(O)COc2ccccc2)c2ccc(Br)cc2)nc1 (stereo not shown) [S136] ? 6.5 (X10E06)/mm3

Further, for CN(C)CCCN1c2ccccc2Sc2ccc(Cl)cc21 [S121, CPZ, reference compound] ? 11.1 (X10E06)/mm3

###

- Tested on: hippocampal neurogenesis (Dentate Gyrus)
- Procedure Summary: in vivo neurogenesis assay (BrdU+ cells in dentate gyrus)
- Design: species or system mice
- Test Conditions: living mice; vehicle (DMSO) 7.3
Outcome Measure: Neurogenesis # BrdU+ Cells (X10E06)/mm3 Dentate Gyrus

CNCCC=C1c2ccccc2CCc2ccccc21.Cl [S89, Nortriptyline, reference compound] | 8.7 (X10E06)/mm3
OCCCc1cn(CC(O)Cn2c3ccc(Br)cc3c3cc(Br)ccc32)nn1 (stereo not drawn) [S23] | 7.4 (X10E06)/mm3
N#Cc1ccc2[nH]c3ccc(Br)cc3c2c1 [S216] | 13.0 (X10E06)/mm3
FC(COc1ccccc1)Cn1c2c(c3cc(Br)ccc31)CNCC2 (stereo not drawn) [S108] | 7.6 (X10E06)/mm3
OC(CNc1ccncc1)Cn1c2ccc(Br)cc2c2cc(Br)ccc21 (stereo not drawn) [S45] | 8.0 (X10E06)/mm3
OC(CNc1ccccc1)Cn1c2ccc(C3CC3)cc2c2cc(C3CC3)ccc21 (stereo not drawn) [S62] | 11.8 (X10E06)/mm3

Neurogenesis # BrdU+ Cells (X10E06)/mm3 Dentate Gyrus lookup needed for O=S(=O)(CC(O)Cn1c2ccc(Br)cc2c2cc(Br)ccc21)c1ccc(OCCF)cc1 (stereo not drawn) [S156] , thanks. 15.0 (X10E06)/mm3

Further, for CN(C)CCC=C1c2ccccc2CCc2ccccc21.Cl [S86, Amitriptyline, reference compound] ? 9.7 (X10E06)/mm3

Further, for OC(COc1ccccc1)Cn1c2ccc(Br)cc2c2cc(Br)ccc21 (stereo not drawn) [S39] ? 14.8 (X10E06)/mm3

###

- System Under Test: p70 (NAMPT) (Homo sapiens, UniProt P43490)
- Construct: endogenous in cells; host or cells: H2122 lung cancer cells
- Sequence (P43490 whole entry): as above
- Procedure Summary: binding competition for photo-crosslinking of P7C3-S326 to p70 in H2122 cells
- Test Conditions: 0.3 μM P7C3-S326 plus 5 μM competitor, p70 band intensity, P7C3-S326 alone compared with plus competitor, vehicle 1.0
Outcome Measure: Binding competition
Reply: number alone, nothing else.

O=c1ccccn1CC(O)Cn1c2ccc(Br)cc2c2cc(Br)ccc21 (centres unmarked) [S137] | 4.5

// fetch p70 (NAMPT) (Homo sapiens, UniProt P43490) Binding competition for N#CN1CCc2c(c3cc(Br)ccc3n2CC(O)COc2ccccc2)C1 (centres unmarked) [S107] 3.5

Further, for COCCOCCOc1ccc(NCC(F)Cn2c3ccc(Br)cc3c3cc(Br)ccc32)cc1 (centres unmarked) [S66] ? 3.5

Further, for COc1ccc(S(=O)(=O)CC(O)Cn2c3ccc(Br)cc3c3cc(Br)ccc32)cc1 (centres unmarked) [S84] ? 1.2

Further, for COc1ccc(S(=O)(=O)CC(F)Cn2c3ccc(Br)cc3c3cc(Br)ccc32)cc1 (centres unmarked) [S83] ? 1.0

###

Each entry below lists one item and its recorded Binding competition value.
- System Under Test: p70 (NAMPT) (Homo sapiens)
- Construct: endogenous in cells; host or cells: H2122 lung cancer cells
- Procedure Summary: binding competition for photo-crosslinking of P7C3-S326 to p70 in H2122 cells
- Test Conditions: 0.3 μM P7C3-S326 plus 5 μM competitor, p70 band intensity, P7C3-S326 alone compared with plus competitor, vehicle 1.0
- Procedure: Cultured cells were co-exposed to P7C3-S326 (0.3 uM) and the individual P7C3 variants (5 uM), exposed to UV light, lysed, clicked to a fluorescent dye and run on SDS gels (FIG. 11). […] H2122 cells were incubated with the P7C3-S326 (0.3 μM) in the absence or presence of P7C3 analogs for 2 hours following by UV crosslinking. […] The p70 band intensity was analyzed and quantified by Image J, and the relative intensity in each assay was normalized to that of the DMSO control.

Completed entries (count: 4):
[N-]=[N+]=Nc1cccc(NCC(O)Cn2c3ccc(Br)cc3c3cc(Br)ccc32)c1 (stereo not shown) [S36] | 3.1
[O-][n+]1ccc2c(c1)c1cc(Br)ccc1n2CC(O)COc1ccccc1 (stereo not shown) [S195] | 1.1
Brc1ccc2c(c1)c1cc(Br)ccc1n2CCNc1ccccc1 [S115] | 3.7
O=C(Cn1c2ccc(Br)cc2c2cc(Br)ccc21)Nc1ccccc1 [S112] | 1.2

Binding competition lookup needed for OC(COc1ccccc1)Cn1c2ccc(Br)cc2c2cccnc21 (stereo not shown) [S186] , thanks. 3.4

Further, for O=C(O)c1ccc2[nH]c3ccc(Br)cc3c2c1 [S225] ? 2.2

Further, for CCOc1cccc(NCC(O)Cn2c3ccc(Br)cc3c3cc(Br)ccc32)c1 (stereo not shown) [S24] ? 3.1

###

- System Under Test: p70 (NAMPT) (Homo sapiens)
- Construct: endogenous in cells; host or cells: H2122 lung cancer cells
- Procedure Summary: binding competition for photo-crosslinking of P7C3-S326 to p70 in H2122 cells
- Test Conditions: 0.3 μM P7C3-S326 plus 5 μM competitor, p70 band intensity, P7C3-S326 alone compared with plus competitor, vehicle 1.0
Each entry below lists one item and its recorded Binding competition value.

O[C@@H](COc1ccccc1)Cn1c2ccc(Br)cc2c2cc(Br)ccc21 | 2.8
NCC(O)Cn1c2ccc(Br)cc2c2cc(Br)ccc21 (stereo not shown) | 1.3
CC(C)NCC(O)CN1c2ccccc2CCc2ccccc21 (stereo not shown) | 1.4
CC(C(=O)O)n1c2ccc(Br)cc2c2cc(Br)ccc21 (stereo not shown) | 1.2

Binding competition lookup needed for CN(C)C[C@@H](O)CN1c2ccccc2CCc2ccccc21 , thanks. 1.1

Further, for N#Cc1[nH]c2ccc(Br)cc2c1N ? 1.3

Further, for N#Cc1cc2c(cn1)[nH]c1ccc(Br)cc12 ? 2.9

Further, for CCOC(=O)C1=C[C@]2(CC)CCCN3CCc4c(n1c1ccccc41)[C@@H]32 ? 1.1

Further, for COc1ccc2[nH]cc(CCNC(C)=O)c2c1 ? 1.1

Further, for OC(CNc1ccncc1)Cn1c2ccc(Br)cc2c2cc(Br)ccc21 (stereo not shown) ? 1.2

Further, for OCCn1c2ccc(Br)cc2c2cc(Br)ccc21 ? 3.2

Further, for Cc1cc2c3cc(Br)ccc3n(CC(O)COc3ccccc3)c2cn1 (stereo not shown) ? 4.1

Further, for CCOC(=O)C1=NCc2c(c3ccccc3n2S(=O)(=O)c2ccc(C)cc2)N1 ? 1.6

Further, for COc1cccc(NC[C@@H](O)Cn2c3ccc(Br)cc3c3cc(Br)ccc32)c1 ? 1.9

Further, for CN(C)C(=O)COc1ccc(NCC(F)Cn2c3ccc(Br)cc3c3cc(Br)ccc32)cc1 (stereo not shown) ? 2.5
